# Test system: HeLa Kyoto;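 also: synchronized HeLa Kyoto cells, proteins quantified by TMT10plex mass spectrometry, three biological replicates, mitosis taken 0.5 h after nocodazole release, G1/S directly after double thymidine block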
# assay_details: thermal stability score vs G1/S (z-score of summed log2 fold changes over temperatures); higher = more thermally stable than in G1/S
# condition_notes: cell cycle stage: mitosis
For each entry below, report its thermal stability score value.
Answer with the value's number alone.

Query: Input MALSRVCWARSAVWGSAVTPGHFVTRRLQLGRSGLAWGAPRSSKLHLSPKADVKNLMSYVVTKTKAINGKYHRFLGRHFPRFYVLYTIFMKGLQMLWADAKKARRIKTNMWKHNIKFHQLPYREMEHLRQFRQDVTKCLFLGIISIPPFANYLVFLLMYLFPRQLLIRHFWTPKQQTDFLDIYHAFRKQSHPEIISYLEKVIPLISDAGLRWRLTDLCTKIQRGTHPAIHDILALRECFSNHPLGMNQLQALHVKALSRAMLLTSYLPPPLLRHRLKTHTTVIHQLDKALAKLGIGQLTAQEVKSACYLRGLNSTHIGEDRCRTWLGEWLQISCSLKEAELSLLLHNVVLLSTNYLGTRR [LETMD1] , output reported thermal stability score.
Response: -0.884

Query: Note thermal stability score for the sequence shown: MAAAEPAVLALPNSGAGGAGAPSGTVPVLFCFSVFARPSSVPHGAGYELLIQKFLSLYGDQIDMHRKFVVQLFAEEWGQYVDLPKGFAVSERCKVRLVPLQIQLTTLGNLTPSSTVFFCCDMQERFRPAIKYFGDIISVGQRLLQGARILGIPVIVTEQYPKGLGSTVQEIDLTGVKLVLPKTKFSMVLPEVEAALAEIPGVRSVVLFGVETHVCIQQTALELVGRGVEVHIVADATSSRSMMDRMFALERLARTGIIVTTSEAVLLQLVADKDHPKFKEIQNLIKASAPESGLLSKV [ISOC1]
Response: -0.91
